Source of measurements: ChEMBL document CHEMBL1145009

- Tested Target: Gonadotropin-releasing hormone receptor (Homo sapiens)
- Sequence (P30968 whole entry): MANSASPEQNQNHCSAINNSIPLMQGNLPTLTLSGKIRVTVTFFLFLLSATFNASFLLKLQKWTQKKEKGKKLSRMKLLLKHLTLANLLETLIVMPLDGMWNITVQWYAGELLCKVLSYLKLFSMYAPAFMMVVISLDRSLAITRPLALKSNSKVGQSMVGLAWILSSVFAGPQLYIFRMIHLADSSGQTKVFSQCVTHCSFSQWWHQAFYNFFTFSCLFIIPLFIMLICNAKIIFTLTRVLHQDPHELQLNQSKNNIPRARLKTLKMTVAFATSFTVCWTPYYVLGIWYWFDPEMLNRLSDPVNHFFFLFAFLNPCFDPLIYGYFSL
- Measurement Protocol: Antagonist concentration required to inhibit specific binding of [125I]leuprorelin to human luteinizing releasing hormone receptor in cloned chinese hamster ovary (CHO) cells.
pIC50: −log10 of the molar value.
Lab note: compare pIC50 against 9. Equal or greater, write YES. Smaller, write NO.

Past entries and their recorded results:
{"Chemical String": "COc1ccc(-c2sc3c(c2CN(C)Cc2ccccc2)c(=O)n(CC(C)C)c(=O)n3Cc2c(F)cccc2F)cc1", "Tested Target": "Gonadotropin-releasing hormone receptor (Homo sapiens)", "Category Label": "NO"}
{"Chemical String": "COc1ccc(-c2sc3c(c2CN(C)Cc2ccccc2)c(=O)n(-c2ccc(Cl)cc2)c(=O)n3Cc2c(F)cccc2F)cc1", "Tested Target": "Gonadotropin-releasing hormone receptor (Homo sapiens)", "Category Label": "NO"}
{"Chemical String": "CNC(=O)Nc1ccc(-c2sc3c(c2CN(C)Cc2ccccc2)c(=O)n(-c2ccccc2)c(=O)n3Cc2c(F)cccc2F)cc1", "Tested Target": "Gonadotropin-releasing hormone receptor (Homo sapiens)", "Category Label": "YES"}
{"Chemical String": "COc1ccc(-c2sc3c(c2CN(C)Cc2ccccc2)c(=O)n(-c2ccccc2)c(=O)n3Cc2c(F)cccc2F)cc1", "Tested Target": "Gonadotropin-releasing hormone receptor (Homo sapiens)", "Category Label": "NO"}
{"Chemical String": "COc1ccc(-c2sc3c(c2CN(C)Cc2ccccc2)c(=O)n(-c2cccc(OC)c2)c(=O)n3Cc2c(F)cccc2F)cc1", "Tested Target": "Gonadotropin-releasing hormone receptor (Homo sapiens)", "Category Label": "NO"}

Please indicate if the recorded pIC50 for COc1ccc(-c2sc3c(c2CN(C)Cc2ccccc2)c(=O)n(-c2ccc(OC)cc2)c(=O)n3Cc2c(F)cccc2F)cc1 meets or exceeds 9. NO

Please indicate if the recorded pIC50 for COc1ccc(-c2sc3c(c2CN(C)Cc2ccccc2)c(=O)n(-c2cccc(Cl)c2)c(=O)n3Cc2c(F)cccc2F)cc1 meets or exceeds 9. NO

Please indicate if the recorded pIC50 for CC(C)C(=O)Nc1ccc(-c2sc3c(c2CN(C)Cc2ccccc2)c(=O)n(-c2ccccc2)c(=O)n3Cc2c(F)cccc2F)cc1 meets or exceeds 9. YES

Please indicate if the recorded pIC50 for CC(C)NC(=O)Nc1ccc(-c2sc3c(c2CN(C)Cc2ccccc2)c(=O)n(-c2ccccc2)c(=O)n3Cc2c(F)cccc2F)cc1 meets or exceeds 9. YES

Please indicate if the recorded pIC50 for COc1ccc(-c2sc3c(c2CN(C)Cc2ccccc2)c(=O)n(Cc2ccccc2)c(=O)n3Cc2c(F)cccc2F)cc1 meets or exceeds 9. NO

Please indicate if the recorded pIC50 for COc1cccc(-n2c(=O)c3c(CN(C)Cc4ccccc4)c(-c4ccc(NC(=O)C(C)C)cc4)sc3n(Cc3c(F)cccc3F)c2=O)c1 meets or exceeds 9. YES

Please indicate if the recorded pIC50 for CCONC(=O)Nc1ccc(-c2sc3c(c2CN(C)Cc2ccccc2)c(=O)n(-c2ccccc2)c(=O)n3Cc2c(F)cccc2F)cc1 meets or exceeds 9. YES

Please indicate if the recorded pIC50 for COc1cccc(-n2c(=O)c3c(CN(C)Cc4ccccc4)c(-c4ccc([N+](=O)[O-])cc4)sc3n(Cc3c(F)cccc3F)c2=O)c1 meets or exceeds 9. NO

Please indicate if the recorded pIC50 for COc1ccc(-c2sc3c(c2CN(C)Cc2ccccc2)c(=O)n(-c2ccccc2OC)c(=O)n3Cc2c(F)cccc2F)cc1 meets or exceeds 9. NO

Please indicate if the recorded pIC50 for CN(Cc1ccccc1)Cc1c(-c2ccc(NC(=O)NO)cc2)sc2c1c(=O)n(-c1ccccc1)c(=O)n2Cc1c(F)cccc1F meets or exceeds 9. YES

Please indicate if the recorded pIC50 for COc1ccc(-c2sc3c(c2CN(C)Cc2ccccc2)c(=O)n(C2CCCCC2)c(=O)n3Cc2c(F)cccc2F)cc1 meets or exceeds 9. NO

Please indicate if the recorded pIC50 for CCC(=O)Nc1ccc(-c2sc3c(c2CN(C)Cc2ccccc2)c(=O)n(-c2cccc(OC)c2)c(=O)n3Cc2c(F)cccc2F)cc1 meets or exceeds 9. YES

Please indicate if the recorded pIC50 for CCC(=O)N(C)c1ccc(-c2sc3c(c2CN(C)Cc2ccccc2)c(=O)n(-c2cccc(OC)c2)c(=O)n3Cc2c(F)cccc2F)cc1 meets or exceeds 9. NO

Please indicate if the recorded pIC50 for COc1ccc(-c2sc3c(c2CN(C)Cc2ccccc2)c(=O)n(-c2ccccc2Cl)c(=O)n3Cc2c(F)cccc2F)cc1 meets or exceeds 9. NO
